Kindly supply the reported phage binding ELISA signal (Anti-PSMA Fab, PSMA antigen present) values for the records listed here.
# TARGET_ENTITY: T1, PSMA Fab
# T1 construct: Biotinylated PSMA Fab captured on neutravidin coated plates in the phage ELISA; also called Anti-PSMA Fab; 006 PSMA Fab
# ASSAY_SUMMARY: clonal phage ELISA on captured PSMA Fab pre-incubated with PSMA antigen as competitor, anti-M13 HRP detection;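 further: crude clonal phage supernatants tested by ELISA, wells first treated with blocking buffer plus PSMA antigen, bound phage read out via HRP-linked anti-M13 antibody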
Where no end group is shown, it is not given here.
Numbers only.

Before answering, review these 6 worked examples.
VPKWCTPSWMCASN (cysteine pairing not given here; also: fused to pIII, displayed on bacteriophage) [Phage-2773] : 0.0608
EENWCIPVWMCERL [Phage-2786] : 0.0721
VQAWCVPQWMCNQF [Phage-2772] : 0.0631
VLNWCTPPWMCSGI [Phage-2780] : 0.0732
QDKWCTPTWMCEGL [Phage-2778] : 0.0777
QDKMCRPDWMCMNQ [Phage-2782] : 0.0706

Let us examine a further case.
Per the record, GWNWCVPQWMCTTS [Phage-2781] has phage binding ELISA signal (Anti-PSMA Fab, PSMA antigen present) of 0.121
